System: CAL 27 cells
protocol-details: Cell proliferation assay (IncuCyte real-time cell confluence)
Type: cell-based
condition-info: Homo sapiens; CAL 27 cells; single agents; read-out: IC50 as single agents, cell proliferation
recorded-endpoint: pIC50
Answers are plain numbers, as −log10 of the molar value.

Provide measured pIC50 on CAL 27 cells for C=CCc1ccc(O)c(-c2ccc(O)c(CC=C)c2)c1 [HNK, 5,3′-diallyl-2,4′-dihydroxybiphenyl] please.
4.72
